# assayed.system: UniProt Q96EB6
# test.details: SIRT1 fluorescence polarization (FP) deacetylation assay with p53-based peptide substrates
# Type: biochemical
# details: Sirt1 Inhibitors
Listing: IC50 of selected molecules

> print(dat)
                         chemical.structure   reading
1  CN(C)c1cccc(C(=O)Nc2ccc(-c3nc4ncccc4o3)cc2)c1  > 150 µM

Reported IC50 of N#Cc1cccc(C(=O)Nc2ccc(-c3nc4ncccc4o3)cc2)c1 : 51 to 100 µM

Reported IC50 of COc1ccc(C(=O)Nc2ccc(-c3nc4ncccc4o3)cc2)cc1Cl : > 150 µM

Reported IC50 of N#Cc1ccc(C(=O)Nc2ccc(-c3nc4ncccc4o3)cc2)cc1 : 51 to 100 µM

Reported IC50 of Cc1cc(SCc2sc(-c3ccc(C(F)(F)F)cc3)nc2C)ccc1OCC(=O)O : 51 to 100 µM

Reported IC50 of O=C(Nc1ccc(-c2nc3ncccc3o2)cc1)c1ccccc1N1CCOCC1 : > 150 µM

###

# assayed.system: UniProtKB Q96EB6
# Sequence (Q96EB6 1-747): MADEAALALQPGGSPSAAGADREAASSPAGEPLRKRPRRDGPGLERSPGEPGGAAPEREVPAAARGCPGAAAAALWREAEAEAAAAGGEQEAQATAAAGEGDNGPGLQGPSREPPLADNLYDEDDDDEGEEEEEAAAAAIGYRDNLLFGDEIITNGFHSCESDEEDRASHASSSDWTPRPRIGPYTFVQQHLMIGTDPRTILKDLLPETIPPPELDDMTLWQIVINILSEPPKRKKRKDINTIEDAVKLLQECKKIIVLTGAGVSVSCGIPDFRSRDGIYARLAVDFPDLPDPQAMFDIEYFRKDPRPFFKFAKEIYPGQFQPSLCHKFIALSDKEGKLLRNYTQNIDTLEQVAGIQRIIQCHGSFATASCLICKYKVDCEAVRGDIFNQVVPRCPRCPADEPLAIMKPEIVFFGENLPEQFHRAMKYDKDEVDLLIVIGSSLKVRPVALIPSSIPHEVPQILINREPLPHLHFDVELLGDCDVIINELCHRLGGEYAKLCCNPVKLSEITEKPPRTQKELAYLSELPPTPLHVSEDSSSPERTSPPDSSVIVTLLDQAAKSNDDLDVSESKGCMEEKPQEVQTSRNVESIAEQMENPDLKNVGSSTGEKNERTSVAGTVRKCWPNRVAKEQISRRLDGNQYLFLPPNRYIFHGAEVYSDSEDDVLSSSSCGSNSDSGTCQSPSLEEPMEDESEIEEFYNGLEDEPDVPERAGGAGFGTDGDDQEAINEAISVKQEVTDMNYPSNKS
# test.details: SIRT1 mass spectrometry (MS) based deacetylation assay
# Format: biochemical
# details: SIRT1 activation, mass spectrometry assay; read-out: ED50 MS ASSAY
pEC50: −log10 of the molar value.
observation.type: pEC50

> print(dat)
                                   compound  observation.type       reading
1  COc1ccc(C(=O)Nc2cc(CN3CCNCC3)cc(-c3nc4ncccc4o3)c2)cc1OC [Compound 159]             pEC50  4.30 to 5.30

Reported pEC50 of COc1ccc(C(=O)Nc2ccccc2-c2nc3cnccc3s2)c(OC)c1OC [Compound 411] : 4.30 to 5.30

Reported pEC50 of COc1cc(OC)cc(C(=O)Nc2ccccc2-c2nc3ccccc3[nH]2)c1 [Compound 141] : > 5.30

Reported pEC50 of CN(C)c1cccc(C(=O)Nc2ccc(-c3nc4cnccc4o3)s2)c1 [Compound 427] : > 5.30

Reported pEC50 of COc1cc(SC)ccc1C(=O)Nc1cccc(-c2nncn2C)c1 [Compound 83] : 4.30 to 5.30

Reported pEC50 of Cc1cc(C(=O)Nc2cccc(-c3nc4ccncc4s3)c2)n(C(C)(C)C)n1 [Compound 228] : 4.30 to 5.30

Reported pEC50 of COc1ccc(C(=O)Nc2cc(C(=O)N3CCNCC3)cc(-c3nc4ncccc4o3)c2)c(OC)c1 [Compound 139] : 4.30 to 5.30

Reported pEC50 of O=C(Nc1cccc(-c2nc3ccncc3s2)c1)c1ccco1 [Compound 221] : 4.30 to 5.30

Reported pEC50 of COc1ccc(C(=O)Nc2cccc(-c3nc4ccccc4s3)c2)c(OC)c1 [Compound 124] : 4.30 to 5.30

Reported pEC50 of CN(C)c1cccc(C(=O)Nc2ccccc2-c2cn3c(CN4CCNCC4)csc3n2)c1 [Compound 327] : 4.30 to 5.30

Reported pEC50 of COc1ccc(NC(=O)c2cccc(-c3nc4ncccc4o3)c2)cc1OC [Compound 101] : 4.30 to 5.30

###

# assayed.system: SIRT1 (Homo sapiens)
# test.details: SIRT1 mass spectrometry (MS) based deacetylation assay
# Assay type: biochemical
pEC50: −log10 of the molar value.
Listing: pEC50 of selected compounds

# annotated cases, reported pEC50 shown
> print(dat)
                                   compound  observation.type       reading
1  COc1ccc(OC(=O)Nc2ccccc2-c2nc3ncccc3o2)cc1OC [Compound 670]             pEC50  4.30 to 5.30
2  O=C(Nc1ccc2c(c1)OCO2)Nc1cc(-c2nc3ccccc3o2)ccn1 [Compound 86]             pEC50        < 3.82
3  COc1ccc(C(=O)Nc2cc(-c3nc4ccccc4o3)ccn2)cc1OC [Compound 77]             pEC50  4.30 to 5.30

Now consider a different compound.
Reported pEC50 of CN(C)c1cccc(C(=O)Nc2cccc(-c3nc4ncccc4s3)c2)c1 [Compound 200] : > 5.30

###

# assayed.system: SIRT1 (Homo sapiens)
# Sequence (Q96EB6 1-747): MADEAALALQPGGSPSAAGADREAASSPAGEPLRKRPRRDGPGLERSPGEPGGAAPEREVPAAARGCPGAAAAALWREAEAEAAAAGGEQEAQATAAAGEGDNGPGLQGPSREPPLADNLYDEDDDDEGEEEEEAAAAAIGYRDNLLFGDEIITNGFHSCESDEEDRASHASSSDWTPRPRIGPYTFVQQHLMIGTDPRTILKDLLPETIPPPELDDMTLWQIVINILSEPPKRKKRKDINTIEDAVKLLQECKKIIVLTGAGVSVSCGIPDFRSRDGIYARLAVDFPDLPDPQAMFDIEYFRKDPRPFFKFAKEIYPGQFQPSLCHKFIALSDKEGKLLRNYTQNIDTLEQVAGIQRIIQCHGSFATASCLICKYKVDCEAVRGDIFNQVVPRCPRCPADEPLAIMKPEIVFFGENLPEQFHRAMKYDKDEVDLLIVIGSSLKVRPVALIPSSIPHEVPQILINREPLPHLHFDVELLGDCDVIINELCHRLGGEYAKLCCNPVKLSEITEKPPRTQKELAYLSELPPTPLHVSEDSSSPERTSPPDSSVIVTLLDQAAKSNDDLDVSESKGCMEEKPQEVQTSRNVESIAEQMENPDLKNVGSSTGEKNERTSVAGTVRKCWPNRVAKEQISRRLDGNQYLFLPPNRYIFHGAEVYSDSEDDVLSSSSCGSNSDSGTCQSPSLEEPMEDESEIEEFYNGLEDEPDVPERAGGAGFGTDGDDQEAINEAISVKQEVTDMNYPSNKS
# test.details: SIRT1 mass spectrometry (MS) based deacetylation assay
# Type: biochemical
# details: SIRT1 activation, mass spectrometry assay; read-out: ED50 MS ASSAY
pEC50: −log10 of the molar value.
observation.type: pEC50

Reported pEC50 of COc1ccc(C(=O)Nc2ccc(-c3nc4cccnc4[nH]3)cc2)c(OC)c1OC : < 3.82

Reported pEC50 of COc1ccc(C(=O)Nc2ccc(-c3nc4ncccc4o3)cc2)c(OC)c1OC : < 3.82

Reported pEC50 of O=C(Nc1ccccc1-c1nc2ccc(CN3CCNCC3)nc2s1)c1ccc(F)c(F)c1 : 4.30 to 5.30

Reported pEC50 of CN(C)c1ccc(C(=O)Nc2ccc(-c3nc4ncccc4o3)cc2)cc1 : < 3.82

###

Listing: pEC50 of selected compounds
# assayed.system: SIRT1 (Homo sapiens, UniProt Q96EB6)
# Sequence (Q96EB6 1-747): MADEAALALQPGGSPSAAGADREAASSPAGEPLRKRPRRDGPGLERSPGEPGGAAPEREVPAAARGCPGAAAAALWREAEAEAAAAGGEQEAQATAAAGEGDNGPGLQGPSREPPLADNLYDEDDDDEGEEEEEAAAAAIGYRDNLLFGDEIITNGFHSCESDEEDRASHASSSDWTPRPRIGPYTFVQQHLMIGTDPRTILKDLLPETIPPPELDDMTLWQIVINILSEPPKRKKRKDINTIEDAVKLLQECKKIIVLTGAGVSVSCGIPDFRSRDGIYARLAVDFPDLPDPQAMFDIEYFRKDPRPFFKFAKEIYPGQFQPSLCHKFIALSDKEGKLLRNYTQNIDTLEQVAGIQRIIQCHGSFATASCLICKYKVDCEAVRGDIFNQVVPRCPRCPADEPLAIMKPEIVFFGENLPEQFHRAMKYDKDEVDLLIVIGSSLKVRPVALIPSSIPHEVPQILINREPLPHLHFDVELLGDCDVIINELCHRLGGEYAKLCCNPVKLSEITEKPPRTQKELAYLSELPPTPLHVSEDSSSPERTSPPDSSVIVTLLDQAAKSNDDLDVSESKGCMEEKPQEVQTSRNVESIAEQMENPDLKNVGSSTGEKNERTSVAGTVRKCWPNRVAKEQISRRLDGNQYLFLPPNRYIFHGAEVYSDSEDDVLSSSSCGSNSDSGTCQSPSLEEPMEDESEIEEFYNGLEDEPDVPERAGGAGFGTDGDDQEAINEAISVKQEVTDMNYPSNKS
# test.details: SIRT1 mass spectrometry (MS) based deacetylation assay
# Type: biochemical
# details: Sirt1 activators; mass spectrometry assay; read-out: ED50 MS ASSAY
pEC50: −log10 of the molar value.

> print(dat)
                                   compound       reading
1  O=C(Nc1ccccc1-c1nc2cc(CN3CCNCC3)cnc2s1)c1ccc2ccccc2n1 [Compound 646]  4.30 to 5.30
2  COc1ccc(C(=O)Nc2ccc(C)cc2-c2nc3ccccc3[nH]2)cc1OC [Compound 507]        > 5.30
3  O=C(Nc1ccccc1-c1cn2c(CN3CCOCC3)csc2n1)c1cnc2ccccc2n1 [Compound 617]        > 5.30
4  COc1cc(C(=O)Nc2cc(-c3nc4ncccc4o3)ccn2)ccc1CN1CCNCC1 [Compound 638]        < 3.82
5  COc1cc(C(=O)Nc2ccccc2-c2nc3ncccc3o2)ccc1CN(C)C [Compound 630]  4.30 to 5.30
6  Cc1cnc(C(=O)Nc2ccccc2-c2cn3c(CN4CCNCC4)csc3n2)cn1 [Compound 644]  4.30 to 5.30

Reported pEC50 of O=C(Nc1ccccc1-c1nc2cccnc2[nH]1)c1ccc(N2CCCCC2)cc1 [Compound 527] : > 5.30

Reported pEC50 of COc1ccc(NC(=S)Nc2cc(-c3nc4ncccc4o3)ccn2)cc1OC [Compound 660] : 4.30 to 5.30
